Test system: LpxC enzyme
Assay: LpxC enzyme assay (RapidFire high-throughput mass spectrometry)
Type: biochemical
Conditions: concentration 0.10 (unit not given)
experimental endpoint: LpxC enzyme assay rating (% inhibition at indicated concentrations)

- compound smiles: "CCCc1ccc(NC(=O)[C@H](O)[C@@H](O)C(=O)N2CCCC2)cc1"
  result: "B (10-30% inhibition)"
- compound smiles: "CN(C)C(=O)[C@H](O)[C@@H](O)C(=O)N1CCN(c2ccc(-c3ccccc3)cc2)CC1"
  result: "B (10-30% inhibition)"
- compound smiles: "CCCCc1ccc(NC(=O)[C@H](O)[C@@H](O)C(=O)NC)cc1"
  result: "B (10-30% inhibition)"

###

Tested on: LpxC enzyme
Experiment: LpxC enzyme assay (RapidFire high-throughput mass spectrometry)
Type: biochemical
Details: concentration 0.78 (unit not given)
experimental endpoint: LpxC enzyme assay rating (% inhibition at indicated concentrations)

- molecule: "CNC(=O)[C@H](O)[C@@H](O)C(=O)Nc1ccc(OCCCN(C)C)cc1 [Compound 40]"
  result: "B (10-30% inhibition)"
- molecule: "O=C(Nc1ccc(Oc2ccccc2)cc1)[C@H](O)[C@@H](O)C(=O)N1CCCC1 [Compound 71]"
  result: "B (10-30% inhibition)"

###

Test system: LpxC enzyme
Assay: LpxC enzyme assay (RapidFire high-throughput mass spectrometry)
Format: biochemical
Details: concentration 0.20 (unit not given)
experimental endpoint: LpxC enzyme assay rating (% inhibition at indicated concentrations)

- compound smiles: "CNC(=O)[C@H](O)[C@@H](O)C(=O)N1CCN(c2cccc(-c3ccccc3)c2)CC1"
  system name: "LpxC enzyme"
  result: "B (10-30% inhibition)"
- compound smiles: "CN1CCN(c2ccc(NC(=O)[C@H](O)[C@@H](O)C(=O)N(C)C)cc2)CC1"
  system name: "LpxC enzyme"
  result: "B (10-30% inhibition)"

###

Test system: LpxC enzyme
Test: LpxC enzyme assay (RapidFire high-throughput mass spectrometry)
Format: biochemical
Conditions: concentration 12.50 (unit not given)
experimental endpoint: LpxC enzyme assay rating (% inhibition at indicated concentrations)

- compound smiles: "C[C@@H](O)[C@H](NC(=O)[C@H](O)[C@@H](O)C(=O)N(C)C)C(=O)Nc1ccc(C#Cc2ccccc2)cc1"
  system name: "LpxC enzyme"
  result: "B (10-30% inhibition)"
- compound smiles: "CNC(=O)[C@H](O)[C@@H](O)C(=O)Nc1ccc(C#Cc2ccccc2)cc1"
  system name: "LpxC enzyme"
  result: "B (10-30% inhibition)"
- compound smiles: "CN(C)C(=O)[C@H](O)[C@@H](O)C(=O)Nc1ccc(-n2cccn2)cc1"
  system name: "LpxC enzyme"
  result: "B (10-30% inhibition)"

###

Test system: LpxC enzyme
Assay: LpxC enzyme assay (RapidFire high-throughput mass spectrometry)
Format: biochemical
Details: concentration 1.56 (unit not given)
experimental endpoint: LpxC enzyme assay rating (% inhibition at indicated concentrations)

- molecule: "O=C(Nc1ccc(-c2cc[nH]n2)cc1)[C@H](O)[C@@H](O)C(=O)N1CCCC1 [Compound 76]"
  result: "B (10-30% inhibition)"
- molecule: "CNC(=O)[C@H](O)[C@@H](O)C(=O)N1CCN(c2cccc(-c3ccccc3)c2)CC1 [Compound 31]"
  result: "B (10-30% inhibition)"
- molecule: "CNC(=O)[C@H](O)[C@@H](O)C(=O)N1CCC(c2ccc(C(F)(F)F)cc2)CC1 [Compound 35]"
  result: "B (10-30% inhibition)"
